- Test system: NCI-H1792
- Run description: relative viability (nuclei count vs DMSO), 5 days (fraction); higher = more cells survive
- Particulars: first compound 1.265 µM
Each record here notes measured relative viability.

[
  {
    "Molecule": "COc1cc(N2CCC(C(N)=O)CC2)ccc1Nc1nc(N)c(Cl)c(Nc2ccccc2S(=O)(=O)C(C)C)n1 [HG-5-88-01] + C[C@@H](Oc1cc(-c2cnn(C3CCNCC3)c2)cnc1N)c1c(Cl)ccc(F)c1Cl [Crizotinib] (partner 1 µM)",
    "Experimental target": "NCI-H1792",
    "relative viability": 0.947
  },
  {
    "Molecule": "COc1cc(N2CCC(C(N)=O)CC2)ccc1Nc1nc(N)c(Cl)c(Nc2ccccc2S(=O)(=O)C(C)C)n1 [HG-5-88-01] + Cc1nc(NC(=O)N2CCC[C@H]2C(N)=O)sc1-c1ccnc(C(C)(C)C(F)(F)F)c1 [Alpelisib] (partner 2 µM)",
    "Experimental target": "NCI-H1792",
    "relative viability": 0.635
  },
  {
    "Molecule": "Clc1ccc(Nc2nnc(Cc3ccncc3)c3ccccc23)cc1 [Vatalanib] + CC1(C)CCC(c2ccc(Cl)cc2)=C(CN2CCN(c3ccc(C(=O)NS(=O)(=O)c4ccc(N[C@H](CCN5CCOCC5)CSc5ccccc5)c(S(=O)(=O)C(F)(F)F)c4)cc3)CC2)C1 [Navitoclax] (partner 0.5 µM)",
    "Experimental target": "NCI-H1792",
    "relative viability": 0.678
  }
]

###

- Test system: NCI-H1395
- Run description: relative viability (nuclei count vs DMSO), 5 days (fraction); higher = more cells survive
- Particulars: first compound 1.265 µM

[
  {
    "Compound": "COc1cc(N2CCC(C(N)=O)CC2)ccc1Nc1nc(N)c(Cl)c(Nc2ccccc2S(=O)(=O)C(C)C)n1 [HG-5-88-01] + CS(=O)(=O)CCNCc1ccc(-c2ccc3ncnc(Nc4ccc(OCc5cccc(F)c5)c(Cl)c4)c3c2)o1 [Lapatinib] (partner 2 µM)",
    "relative viability": 1.05
  },
  {
    "Compound": "COc1cc(N2CCC(C(N)=O)CC2)ccc1Nc1nc(N)c(Cl)c(Nc2ccccc2S(=O)(=O)C(C)C)n1 [HG-5-88-01] + CCNC(=O)c1noc(-c2cc(C(C)C)c(O)cc2O)c1-c1ccc(CN2CCOCC2)cc1 [Luminespib] (partner 0.01 µM)",
    "relative viability": 0.532
  },
  {
    "Compound": "Clc1ccc(Nc2nnc(Cc3ccncc3)c3ccccc23)cc1 [Vatalanib] + COc1cc2c(Oc3ccc(NC(=O)C4(C(=O)Nc5ccc(F)cc5)CC4)cc3F)ccnc2cc1OCCCN1CCOCC1 [Foretinib] (partner 0.25 µM)",
    "relative viability": 0.938
  },
  {
    "Compound": "Clc1ccc(Nc2nnc(Cc3ccncc3)c3ccccc23)cc1 [Vatalanib] + C[C@]1(O)C[C@@H](c2nc(-c3ccc4ccc(-c5ccccc5)nc4c3)c3c(N)nccn32)C1 [Linsitinib] (partner 1 µM)",
    "relative viability": 0.998
  }
]

###

- Tested on: HCC-44
- Run description: relative viability (nuclei count vs DMSO), 5 days (fraction); higher = more cells survive
- Particulars: first compound 4 µM
Each item that follows carries a reported relative viability.

[
  {
    "Compound": "C[C@@H]1CN(CC(=O)Nc2ccc3c(c2)Cc2cccc(-c4cc(=O)cc(N5CCOCC5)o4)c2S3)C[C@H](C)O1 + CC1(C)CCC(c2ccc(Cl)cc2)=C(CN2CCN(c3ccc(C(=O)NS(=O)(=O)c4ccc(N[C@H](CCN5CCOCC5)CSc5ccccc5)c(S(=O)(=O)C(F)(F)F)c4)cc3)CC2)C1 [Navitoclax] (partner 0.5 µM)",
    "relative viability": 0.943
  },
  {
    "Compound": "C[C@@H]1CN(CC(=O)Nc2ccc3c(c2)Cc2cccc(-c4cc(=O)cc(N5CCOCC5)o4)c2S3)C[C@H](C)O1 + O=C(c1cc(Cc2n[nH]c(=O)c3ccccc23)ccc1F)N1CCN(C(=O)C2CC2)CC1 [Olaparib] (partner 8 µM)",
    "relative viability": 0.969
  },
  {
    "Compound": "C[C@@H]1CN(CC(=O)Nc2ccc3c(c2)Cc2cccc(-c4cc(=O)cc(N5CCOCC5)o4)c2S3)C[C@H](C)O1 + Cc1nc(NC(=O)N2CCC[C@H]2C(N)=O)sc1-c1ccnc(C(C)(C)C(F)(F)F)c1 [Alpelisib] (partner 2 µM)",
    "relative viability": 0.582
  }
]
